The origin of these recorded values is patent US20260028389A1.

# experimental target: rhKLK7 (human, UniProt P49862 30-253)
# Sequence (P49862 30-253): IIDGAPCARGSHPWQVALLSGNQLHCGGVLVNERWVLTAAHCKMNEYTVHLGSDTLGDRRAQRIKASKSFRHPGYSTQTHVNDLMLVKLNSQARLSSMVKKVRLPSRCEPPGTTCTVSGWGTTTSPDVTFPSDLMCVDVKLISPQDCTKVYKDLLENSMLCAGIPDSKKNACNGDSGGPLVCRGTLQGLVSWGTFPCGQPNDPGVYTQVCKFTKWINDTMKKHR
# assay notes: cell-based or functional assay
assay readout: KLK7 IC50 (nM) pH 7.5 (enzymatic activity)
Please give a number only; it is taken to be in nM.

Lookup: Find the recorded KLK7 IC50 (nM) pH 7.5 (enzymatic activity) belonging to Spink9-112.K62G.Fc (SEQ ID NO: 56) (Fc fusion, Mutant SPINK9 domain fused directly to a C-terminal IgG Fc) IECAKQTKQMVDCSHYKKLPPEQELYCTREYDPICGSDGKTYGNDCFFCSKVKKTDGTLKFVHFGKCEPKSCDKTHTCPPCPAPEAAGGPSVFLFPPKPKDTLMISRTPEVTCVVVDVSHEDPEVKFNWYVDGVEVHNAKTKPREEQYNSTYRVVSVLTVLHQDWLNGKEYKCKVSNKALPAPIEKTISKAKGQPREPQVYTLPPSREEMTKNQVSLTCLVKGFYPSDIAVEWESNGQPENNYKTTPPVLDSDGSFFLYSKLTVDKSRWQQGNVFSCSVLHEALHSHYTQKSLSLSPGK and report it.
Found: 2.4
